Origin of values: patent US20250027068

For each record, write down the corresponding Enzyme Activity Endpoint Assay (purified): Fc.
Target: pooled human IgG (human IgG1,2,3 and 4)
Output spec: scalar in ng/µL, unitless text.

Sample PRT-333 (protein) MTITSVWTKGVTPPTPEDFRENNEDVLHAPYVANQGWYDITKTFDGKDNLLCGAATAGNMLHWWFDQNKEEIERYLKKHPEKQKIIFGNQELFDVKAAIDTKDSQTNSKLFNYFRDKAFPGLSARQLGVFPDLVLDMFINGYYLNLGKTQSTDVNRPYQDKDKRGGIFDAVFTRGVQTTLLTARHDLKNKGLNEISDLIKQELTEGKALALSHTYANVRINHVINLWGADFDAEGNLIAIYVTDSDANPSIGMKKYFVGRNANGKVAISAKKIEGDNIGAQVLGLFTLSTGQDIWQKLS ; Enzyme Activity Endpoint Assay (purified): Fc observed: 448

Sample PRT-499 (protein) MVTSVWTKGVTPPADFRKIVDGNIAYYHAPYVANQGWYDITKTFNGKDDLLCGAATAGNMLHWWFDQNKEYIEAYLKKHPEKQKIMFGDQELLDVRKAINTKGSQKNSELFNYFRDKAFPNLSARRLGVMPDLVLDMFINGYYLNVTKTQTTDVNRTYQEKDKRGGIFDAVFTRGDQSKLLTSRHDLKNKGLKEISDLIKQELTEGKALGLSHTYANVRINHVINLWGADFDSDGNLKAIYVTDSDSNASIGMKKYFVGVNSAGKVAISAKEIKEDNIGAQVLGLFTLSTGQDIWNQTNLEHHHHHH ; Enzyme Activity Endpoint Assay (purified): Fc observed: 365
